# Test system: OVCAR-3
# protocol-details: NCI tumour cell line growth inhibition, 48 h
Active and inactive are the calls of the source. Cut-off read from the data, not from the text of the source: active = GI50 up to about 1.1 µM and inactive = higher.
Entries and their measured GI50 follow.
readout-kind: GI50

compound: COc1cc(/C=C2\C(=O)N(c3ccc(Cl)cc3)C(c3ccccc3)S2(=O)=O)cc(OC)c1OC (stereo not given)
observed: 25.4 µM (inactive)
--
compound: COC(=O)c1c[nH]c2nc(N3CCOCC3)nn2c1=O
observed: > 100 µM (inactive)
--
compound: COC(=O)C1=C(C(=O)OC)SC2(S1)C(C(=O)OC)=C(C(=O)OC)Sc1c2ss/c1=N/C(C)(C)C
observed: 1.67 µM (inactive)
--
compound: COc1ccc2nc3cc(Cl)ccc3c(NCCNCCCNC(=O)c3cc(-c4ccccc4)nc4ccccc34)c2c1
observed: 54.7 µM (inactive)
--
compound: CC1(O)CC2C(CC1SC1CC3C(CC1(C)O)C3(C)C)C2(C)C (stereo not given)
observed: 38.8 µM (inactive)
--
compound: c1ccc(OCCSCCCCCCCCCCSCCOc2ccccc2)cc1
observed: > 100 µM (inactive)
--
compound: CC1(C)CCC2=C(O1)/C(=N\Nc1ccccc1)c1ccccc1C2=O
observed: 24 µM (inactive)
--
compound: Cc1ccc(/C=C2\Cc3c(C)cc(C)cc3C2=O)c(C(=O)O)c1
observed: 31 µM (inactive)
--
compound: CSCC[C@H]1C(=O)N=C(N)N1C(=O)OCc1ccccc1
observed: 38.7 µM (inactive)
--
compound: O=C(O)c1cc2c(cc1CC(Cc1ccc3c(c1)CCC3)C(=O)O)CCC2 (stereo not given)
observed: > 100 µM (inactive)

====

# System: NCI/ADR-RES
# protocol-details: NCI tumour cell line growth inhibition, 48 h
Activity calls are given as the source filed them. No stated cut-off is given here; in the data, active = GI50 up to about 1.1 µM and inactive = higher.
Outcomes: 1 for active, 0 for inactive

molecule: COc1cc(C2c3cc4c(cc3[C@@H](Oc3ccc(F)cc3)C3COC(=O)[C@H]23)OCO4)cc(OC)c1O (stereo not given in full)
label: 1
//
molecule: C[C@H]1[C@H]2[C@H]3CC[C@@H]4[C@@]5(C)CC[C@H](O)C(C)(C)[C@@H]5CC[C@@]4(C)[C@]3(C)C[C@H](O)[C@@]2(C)C[C@H]2O[C@]21C
label: 0
//
molecule: Nc1cc(O)c2cc(/N=N/c3ccc(/N=N/c4ccc(/N=N/c5ccc6cc(S(=O)(=O)O)cc(S(=O)(=O)O)c6c5)c5ccccc45)c4cc(S(=O)(=O)O)ccc34)c(S(=O)(=O)O)cc2c1
label: 0
//
molecule: Cc1ccc(C2=NOC(=O)[C@@H]3CCCC[C@@H]23)cc1
label: 0
//
molecule: CSCC[C@H]1C(=O)N=C(N)N1C(=O)OCc1ccccc1
label: 0
//
molecule: FC(F)(F)c1ccc2c(c1)nc(Cc1ccc(Cl)c(Cl)c1)n2CC1CCCN2CCCCC12 (stereo not given)
label: 0
//
molecule: O=C1N/C(=N/N=C/C(O)C(O)C(O)C(O)CO)N/C1=C\c1cccs1 (stereo not given)
label: 0
//
molecule: Cc1ccc(C)n1-c1ccccc1C1C=Cn2c3c1c(=O)c(OC(C)C)c(OC(C)C)c-3n[nH]c2=O (stereo not given)
label: 0
//
molecule: O=C(O)c1ccccc1NCn1c(=S)sc2ccccc21
label: 0
//
molecule: COc1ccc2c(c1)C(N)=C(c1ccccc1OC)C2=O
label: 0
//
molecule: O=[N+]([O-])c1cccc(/N=N/c2c(O)c(S(=O)(=O)O)cc3cc(S(=O)(=O)O)ccc23)c1
label: 0
//
molecule: N#C/C(=C\c1cc(Br)c(O)c(Br)c1)c1ccccn1
label: 0
//
molecule: CC1(C)CC(=O)C(=CN2C(=O)CNC2=S)C(=O)C1
label: 0
//
molecule: CC1(C)CCC2=C(O1)/C(=N\Nc1ccccc1)c1ccccc1C2=O
label: 0
//
molecule: O=C(O)/C=C/c1c[nH]c(=O)[nH]c1=O
label: 0
//
molecule: S=C(N/N=C/c1ccccn1)N1CCCCCC1
label: 1
//
molecule: COC1=CC(=O)O/C1=C(\OC)C1OC1c1ccccc1 (stereo not given)
label: 0
//
molecule: NC(=O)Cn1c(=O)oc2cc(C(=O)CN3CCOCC3)ccc21
label: 0
//
molecule: O=C1CCC2(c3ccc(Cl)cc3)Nc3ncncc3N12 (stereo not given)
label: 0
//
molecule: Cc1nc(C)c(C(=O)NNC(=O)Cc2ccccc2)cc1C(=O)NNC(=O)Cc1ccccc1
label: 0
//
molecule: O=c1[nH]nc(Cc2ccc(Cl)cc2)n1/N=C/c1cccs1
label: 0
//
molecule: O=C(NP(=O)(N1CC1)N1CC1)c1cc(I)ccc1I
label: 0
//
molecule: CN(C)CCCOC(=O)C(c1ccccc1)C1(O)CCSCC1 (stereo not given)
label: 0
//
molecule: COc1ccc(/C=C2/SC(c3ccccc3)N(NC(=O)CCCCCCCCC(=O)NN3C(=O)/C(=C\c4ccc(OC)c(OC)c4)SC3c3ccccc3)C2=O)cc1OC (stereo not given)
label: 0
//
molecule: C/C(=N\NC(=O)N/N=C(\C)c1ccccn1)c1ccccn1
label: 0
//
molecule: CN(C)CCNC(=O)c1cccc2cc3cc(O)ccc3nc12
label: 0
//
molecule: COc1ccccc1C[C@@H]1OC2(C=CC(=O)C=C2)O[C@H]1Cc1ccccc1OC
label: 0
//
molecule: Cc1cc(C)c(S(=O)(=O)N(CCCCCCN)OCCCN)c(C)c1
label: 0
//
molecule: COc1ccc(Nc2nc3ccccc3nc2C(=O)O)cc1
label: 0
//
molecule: O=C1c2ccccc2C(=O)c2c1sc1nc3ccccc3n21
label: 0
//
molecule: O=C(O)c1cc2c(cc1CC(Cc1ccc3c(c1)CCC3)C(=O)O)CCC2 (stereo not given)
label: 0
//
molecule: COC(CC1(/C=C/O[Si](C(C)C)(C(C)C)C(C)C)C(=O)N(COCC[Si](C)(C)C)c2ccccc21)OC (stereo not given)
label: 0
//
molecule: COC(=O)C(Cc1ccccc1)NC(=O)C(CNC(=O)OCc1ccccc1)C(=O)OCc1ccccc1 (stereo not given)
label: 0
//
molecule: Oc1ccc(-c2c3c(nc4c2CCc2ccc(Br)cc2-4)-c2cc(Br)ccc2CC3)cc1
label: 0
//
molecule: O=C1/C(=C/c2ccc(Cl)c(Cl)c2)CNC/C1=C\c1ccc(Cl)c(Cl)c1
label: 0
//
molecule: CC(=O)OC1CC2C(=O)CC1(C)C2(C)C (stereo not given)
label: 0
//
molecule: N/C(=N\c1c([N+](=O)[O-])cnc2ccccc12)N1CCOCC1
label: 0
//
molecule: O=C1c2cc(Cl)ccc2-n2c(noc2=O)C2CSCN12 (stereo not given)
label: 0
//
molecule: O=C(CCC(=O)OCC1OC(O)(CC2OC(CO)C(O)C(O)C2O)C(O)C1O)OCc1ccccc1 (stereo not given)
label: 0
//
molecule: Nc1nc(Cl)cc(NCC2(CO)CC(c3ccccc3)C2)n1 (stereo not given)
label: 0
